Test system: SF-539 CNS
testName: NCI-60 one-dose screen, 48 h
conditionDescription: 10 µM unless noted
About 83,000 compounds went through this panel and 20% of them were active in at least one assay; those are over-represented in the sample as a whole. Calls of active or inactive are those of the source. The calls were made as follows: active = growth percent below 10; inactive = the rest.
Outcome codes: active, inactive

compound	classLabel
CCOC(=O)C1=CN(C)C=C(C(=O)OCC)C1c1cc(Br)c(OCC)c(OC)c1	inactive
COc1ccc(N2C(=O)CC(c3cc(OC)c(OC)c(OC)c3)C3C2=NC(=O)N3C)cc1 (centres undefined)	inactive
CCCCCCCCCCOC(=O)c1ccccc1C(=O)OCCCC	inactive
NCCOc1ccccc1/C=C1\c2ccccc2-c2ccc([N+](=O)[O-])cc21	active
COC(=O)/C(CCC=C(C)C)=C1\[C@@H](OC(C)=O)C[C@@]2(C)[C@H]1C[C@@H](O)[C@H]1[C@@]3(C)CC[C@H](NC(=O)c4cnccn4)[C@@H](C)[C@@H]3CC[C@@]12C	inactive
COc1cc(/C=C/C(=O)N2c3ccccc3CC2C)c(OC)c2c1OCO2 (centres undefined)	inactive
O=C(O)c1cn(C2CC2)c2cc(N3CCN(C(=O)C[n+]4ccccc4)CC3)c(F)cc2c1=O	inactive
COc1cc(/C=C/C(=O)c2ccc(Cl)cc2)cc(CN2CCCCC2)c1O	inactive
CCN1CCN(c2cc(C)c3cc(NC(=O)c4ccc(OC)c(OC)c4)ccc3n2)CC1	inactive

----------
System: ACHN renal
testName: NCI-60 one-dose screen, 48 h
conditionDescription: 10 µM unless noted
Compounds without any hit were thinned out: in the full panel of roughly 83,000, 20% have a hit. Calls of active or inactive are those of the source. The calls were made as follows: active = growth percent below 10; inactive = the rest.
Outcome codes: active, inactive

compound	classLabel
COc1cc(C(=O)NN=C2c3ccccc3-c3ccccc32)cc(OC)c1OC	inactive
O=C1c2ccc3c4c(ccc(c24)C(=O)N1CCCCO)C(=O)N(CCCCO)C3=O	inactive
COc1cc(/C(C#N)=C/c2nc3c(N4CCOCC4)nc(Cl)nc3n2C)cc(OC)c1OC	inactive
Clc1ccc(COc2ccc(Nc3ncnc4onc(-c5ccccc5)c34)cc2)cc1	inactive
CC(C)C[C@H](C(=O)N[C@@H](C)C(N)=O)N1CC=CCN(O)S1(=O)=O	inactive
CCCCOCc1cc(CN2CCN(C)CC2)c(O)c2ncccc12	inactive
O=C(Nc1ccc(F)cc1F)c1cc(Cl)ccc1O	active
O=C1/C(=C/c2ccc(O)cc2)COc2ccc(O)cc21	inactive
CCC1=C[C@@H]2CN(C1)Cc1c([nH]c3ccccc13)[C@@](C(=O)OC)(c1cc3c(cc1OC)N(C)[C@H]1[C@@](O)(C(=O)OC)[C@H](OC(C)=O)[C@]4(CC)[C@@H]5C[C@@H]5CN5CC[C@]31[C@@H]54)C2	inactive
O=C(CCc1nnc2sc(-c3ccc(Cl)cc3Cl)nn12)c1nc2ncccc2[nH]1	active
CCCCC(O)(c1ccc(Cl)cc1)C(CN1CCOCC1)c1ccc(Cl)cc1 (stereo not drawn)	inactive
CC[C@]1(O)C[C@@H]2CN(CCc3c([nH]c4ccccc34)[C@@](C(=O)OC)(c3cc4c(cc3OC)N(C)[C@H]3[C@@](O)(C(=O)OC)[C@H](OC(=O)CCCBr)[C@]5(CC)C=CCN6CC[C@]43[C@@H]65)C2)C1	inactive
O=C(CN1C=NC2C(N3CCOCC3)=NC=NC21)c1cccc2ccccc12 (stereo not drawn)	inactive
CCOC(=O)c1ccc2[nH]c(-c3ccccc3)cc(=O)c2c1	inactive
CN(O)c1nc(N(C)O)nc(N2CCOCC2)n1	inactive
O=Cc1cc2ccccc2nc1Nc1nccs1	inactive
CCCc1c(C)c2sc(=O)[nH]c2[nH]c1=O	inactive
COc1ccc(C2C3=C(COC3=O)N(CCO)c3cc4c(cc32)CCC4)cc1OC (stereo not drawn)	inactive
CN1C(=O)N(C)C2(c3ccccc3)OC(=S)NC12c1ccccc1 (stereo not drawn)	inactive
COC(=O)/C(CCC=C(C)C)=C1\[C@@H](OC(C)=O)C[C@@]2(C)[C@H]1CC(=O)N[C@H]1[C@@]3(C)CCNC(=O)[C@@H](C)[C@@H]3CC[C@@]12C	inactive
COc1cc(C#N)cc2[nH]c(=O)oc12	inactive
COC(=O)/C(CCC=C(C)C)=C1\[C@@H](OC(C)=O)C[C@@]2(C)[C@H]1C[C@@H](O)[C@H]1[C@@]3(C)CC[C@H](NC(=O)c4cnccn4)[C@@H](C)[C@@H]3CC[C@@]12C	inactive
Cc1ccc2cccc(Oc3ccc(Nc4ncnc5onc(-c6ccccc6)c45)cc3)c2n1	inactive
O=C(Nc1ccc(Br)cc1F)c1cc(I)ccc1O	active
O=S1(=O)CCN(Cc2ccccc2)CC1	inactive
O=C(Nc1ccc(-c2nc3ccc(NC(=O)c4ccc(Cl)cc4)cc3[nH]2)cc1)c1ccc(Cl)cc1	active
O=C1c2cc(I)ccc2Oc2cc([N+](=O)[O-])ccc2N1c1ccc(Cl)cc1F	inactive
Nc1n[nH]c2ccc([C@@H]3Nc4ccc5[nH]ncc5c4[C@H]4[C@H]5CCC(C5)[C@H]43)cc12	inactive
O=S1(=O)N(Cc2ccccc2)[C@@H](Cc2ccccc2)C2O[C@H]2[C@H](Cc2ccccc2)N1Cc1ccccc1 (stereo partly drawn)	inactive
COc1cc2nc(NC3CCC3)nc(NC3CCN(C(C)C)CC3)c2cc1OC	inactive
O=C(Nc1ccc(F)cc1F)c1cc(I)ccc1O	inactive
COc1cc(/C=C2\CCC/C(=C\c3cc(CN4CCOCC4)c(O)c(OC)c3)C2=O)cc(CN2CCOCC2)c1O	inactive
O=c1c2cc(F)ccc2sc2c(NCCN3CCCC3)nc3ccccc3c12	inactive
Cn1c(/C=C(\C#N)c2cccc(C(F)(F)F)c2)nc2c(N3CCOCC3)nc(Cl)nc21	active
COc1ccc(-c2nsc3c2NC(=O)CC3c2ccc3c(c2)OCCO3)cc1 (stereo not drawn)	inactive
CCCC(=O)CC(C)=O.CCCC(=O)CC(C)=O.[Cu]	inactive
Fc1cccc(COc2ccc(Nc3ncnc4onc(-c5ccccc5)c34)cc2)c1	inactive
CN1CCN(Cc2ccc(NC(=O)c3[nH]ncc3Nc3cc(OC4CCCC4)ncn3)cc2)CC1	active

----------
Reported growth values for a set of compounds
Tested on: PC-3 prostate
testName: NCI-60 one-dose screen, 48 h (100 = growth as untreated, 0 = no growth, -100 = all killed)
conditionDescription: 10 µM unless noted
About 83,000 compounds went through this panel and 20% of them were active in at least one assay; those are over-represented in the sample as a whole. Activity calls are given as the source filed them. How the source made its calls: active means growth percent below 10; inactive means the rest.

itemSmiles	growth
COc1ccc(-c2nc(-c3ccccn3)c(-c3ccccn3)n2CC(C)C)cc1OC1CCCC1	12.6% (inactive)
O=C(/C=C/c1ccccc1)c1ccc(Nc2nc(NCCO)nc(Nc3ccc(Cl)cc3)n2)cc1	77.8% (inactive)
COc1ccc(/C=C/C(=O)c2c(C)nc3ccccc3c2/C=C/c2ccccc2)c(OC)c1	75.9% (inactive)
Nc1nc(Nc2cccc(F)c2)nc2ccccc12	44.3% (inactive)
NC1(N2SC(S)=C3CCCC=C32)CCCCC1	109% (inactive)

----------
Reported growth values for a set of compounds
System: OVCAR-3 ovarian
testName: NCI-60 one-dose screen, 48 h (100 = growth as untreated, 0 = no growth, -100 = all killed)
conditionDescription: 10 µM unless noted
Procedure: Growth inhibition of the OVCAR-3 human tumor cell line is measured as a screen for anti-cancer activity. Cells are grown in 96 well plates and exposed to the test compound for 48 hours. Compounds are tested at a single concentration, which is 10^-5 M for most compounds. The reported endpoint is percent growth (GI% or GIPRCNT), where numbers from 0 - 100% represent growth inhibition, and numbers from -100% - 0 represent cell death. For example, a value of 40 represents 60% growth inhibition. […]
The panel holds about 83,000 compounds, 20% with a hit somewhere; the sample as a whole holds those more often.
reportedMetric: growth (%)

compound	target	valueMeasured
COc1ccc(CCN2CCC(CN(C)Cc3cnn(-c4ccccc4)c3)CC2)cc1	OVCAR-3 ovarian	37.4
FC(F)(F)c1cccc(Nc2nc(-c3ccccc3)nc3ncccc23)c1	OVCAR-3 ovarian	32.2
COc1ccc(-n2c(C(O)c3ccccc3)nn(CN3CCOCC3)c2=S)cc1 (stereo unspecified)	OVCAR-3 ovarian	124
COC(=O)c1c2c(c(C)[n+]([O-])c1C)C(=O)C(NCc1ccc(Br)cc1)=CC2=O	OVCAR-3 ovarian	-21.5
COc1cc2nc(NC3CCC3)nc(NC3CCN(C(C)C)CC3)c2cc1OC	OVCAR-3 ovarian	85.7
O=c1oc2ccc(Br)cc2c(=O)n1-c1ccc(F)cc1F	OVCAR-3 ovarian	4.73
COc1ccc(/C=C2\CCC/C(=C\c3ccc(OC)c(OC)c3)C2=O)cc1OC	OVCAR-3 ovarian	13.8
Cc1ccc(C)c(-c2csc(Nc3ccc(C)c(C)c3)n2)c1	OVCAR-3 ovarian	67.4
O=c1oc2ccc(Cl)cc2c(=O)n1-c1ccc(I)cc1F	OVCAR-3 ovarian	6.61
COc1cc(C2C3=C(COC3=O)N(CCO)c3cc4c(cc32)OCCO4)cc(OC)c1O (stereo unspecified)	OVCAR-3 ovarian	-31
C#CCn1cc(C=C2C(=O)NC(=O)NC2=O)c2cc(Cl)ccc21	OVCAR-3 ovarian	88.5
CN1CCN(Cc2ccc(NC(=O)c3[nH]ncc3Nc3cc(OC4CCCC4)ncn3)cc2)CC1	OVCAR-3 ovarian	11.2
COc1ccc(-c2cn[nH]c2-c2ccc(OC)c(O)c2)cc1	OVCAR-3 ovarian	81.1
COCCN(C(=O)Cc1cccs1)C(C(=O)NCc1ccc(OC)cc1)c1ccc(C(C)C)cc1 (stereo unspecified)	OVCAR-3 ovarian	51.5
CCCCc1ccc(NS(=O)(=O)c2cc3c4c(c2)CCN4C(=O)CC3)cc1	OVCAR-3 ovarian	32.2
Nc1ncnc(N)c1NC(=O)c1ccc(OCc2ccccc2)cc1	OVCAR-3 ovarian	110
O=C1CCC(N2C(=O)c3cccc(NCCCCCCOc4ccc(Nc5nccc(Nc6ccccc6)n5)cc4)c3C2=O)C(=O)N1 (stereo unspecified)	OVCAR-3 ovarian	78.8
Cc1cccc2c(=O)c3c(sc12)c(NCCN)nc1ccccc13	OVCAR-3 ovarian	-89.6
COc1ccc(N)c(-c2cc3c(c4c2[nH]c2ccc(OC)cc24)CCCC3)c1	OVCAR-3 ovarian	86.1
O=C(Nc1ccc(N2CCNCC2)cc1)c1[nH]ncc1Nc1cc(Oc2ccccc2)ncn1	OVCAR-3 ovarian	6.24
O=C(O)CCCN1C(=O)C2C3CCC(C3)C2C1=O (stereo unspecified)	OVCAR-3 ovarian	112
